Origin of the recorded values: paper PMC11945486

TESTED ON: human TAS1R2-WT/TAS1R3-M110T (Homo sapiens, UniProt Q7RTX0+Q8TE23, M110T)
Construct: expressed in transfected cells; host or cells: HEK293T stably expressing Gα16gust44
Sequence (Q7RTX0 21-852 M110T, one chain of several): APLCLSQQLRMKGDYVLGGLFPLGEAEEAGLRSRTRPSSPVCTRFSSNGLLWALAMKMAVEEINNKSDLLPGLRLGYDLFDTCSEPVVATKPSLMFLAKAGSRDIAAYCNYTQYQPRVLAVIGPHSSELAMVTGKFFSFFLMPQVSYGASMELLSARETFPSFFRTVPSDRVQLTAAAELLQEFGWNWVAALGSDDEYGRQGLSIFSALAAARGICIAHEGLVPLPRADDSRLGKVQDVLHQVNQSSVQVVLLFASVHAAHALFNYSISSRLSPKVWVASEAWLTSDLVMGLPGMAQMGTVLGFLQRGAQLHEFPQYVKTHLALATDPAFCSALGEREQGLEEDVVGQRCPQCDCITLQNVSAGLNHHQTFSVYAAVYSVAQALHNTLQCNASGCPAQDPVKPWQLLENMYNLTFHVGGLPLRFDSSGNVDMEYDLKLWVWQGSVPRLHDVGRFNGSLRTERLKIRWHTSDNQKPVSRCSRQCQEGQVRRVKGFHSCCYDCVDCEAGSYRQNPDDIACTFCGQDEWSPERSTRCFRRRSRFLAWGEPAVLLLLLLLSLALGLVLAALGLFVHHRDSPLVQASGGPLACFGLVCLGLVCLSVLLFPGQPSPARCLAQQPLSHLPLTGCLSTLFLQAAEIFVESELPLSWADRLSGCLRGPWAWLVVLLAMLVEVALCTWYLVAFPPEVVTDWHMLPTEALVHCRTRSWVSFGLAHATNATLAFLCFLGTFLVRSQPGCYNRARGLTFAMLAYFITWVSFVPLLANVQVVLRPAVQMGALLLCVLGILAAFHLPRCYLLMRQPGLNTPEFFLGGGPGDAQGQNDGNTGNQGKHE
ASSAY METHOD TEXT: Calcium mobilisation assay, TAS1R2-WT with TAS1R3 variant M110T
Assay type: cell-based
MEASURE NAME: R1 = Variant EC50/WT EC50

Below: 2 molecules and their reported R1 = Variant EC50/WT EC50.
- MOLECULE: "COc1ccc(CCC(=O)c2c(O)cc(O[C@@H]3O[C@H](CO)[C@@H](O)[C@H](O)[C@H]3O[C@@H]3O[C@@H](C)[C@H](O)[C@@H](O)[C@H]3O)cc2O)cc1O [NHDC, neohesperidin dihydrochalcone]"
  R1 = Variant EC50/WT EC50: 4.0
- MOLECULE: "COC(=O)[C@H](Cc1ccccc1)NC(=O)[C@H](CC(=O)O)NCCC(C)(C)C"
  R1 = Variant EC50/WT EC50: 2.2

a = C=C(C)[C@@H]1CC=C(/C=N/O)CC1
b = CC1=CC(=O)NS(=O)(=O)O1
Query :: // compare: a vs b , metric R1 = Variant EC50/WT EC50, want the smaller Identify your selection by its label.
Result :: b
(b: 1.7, a: 3.0)

* * *

TESTED ON: human TAS1R2-R838K/TAS1R3-WT (Homo sapiens, UniProt Q7RTX0+Q8TE23, R838K)
Sequence (Q8TE23 20-839 R838K): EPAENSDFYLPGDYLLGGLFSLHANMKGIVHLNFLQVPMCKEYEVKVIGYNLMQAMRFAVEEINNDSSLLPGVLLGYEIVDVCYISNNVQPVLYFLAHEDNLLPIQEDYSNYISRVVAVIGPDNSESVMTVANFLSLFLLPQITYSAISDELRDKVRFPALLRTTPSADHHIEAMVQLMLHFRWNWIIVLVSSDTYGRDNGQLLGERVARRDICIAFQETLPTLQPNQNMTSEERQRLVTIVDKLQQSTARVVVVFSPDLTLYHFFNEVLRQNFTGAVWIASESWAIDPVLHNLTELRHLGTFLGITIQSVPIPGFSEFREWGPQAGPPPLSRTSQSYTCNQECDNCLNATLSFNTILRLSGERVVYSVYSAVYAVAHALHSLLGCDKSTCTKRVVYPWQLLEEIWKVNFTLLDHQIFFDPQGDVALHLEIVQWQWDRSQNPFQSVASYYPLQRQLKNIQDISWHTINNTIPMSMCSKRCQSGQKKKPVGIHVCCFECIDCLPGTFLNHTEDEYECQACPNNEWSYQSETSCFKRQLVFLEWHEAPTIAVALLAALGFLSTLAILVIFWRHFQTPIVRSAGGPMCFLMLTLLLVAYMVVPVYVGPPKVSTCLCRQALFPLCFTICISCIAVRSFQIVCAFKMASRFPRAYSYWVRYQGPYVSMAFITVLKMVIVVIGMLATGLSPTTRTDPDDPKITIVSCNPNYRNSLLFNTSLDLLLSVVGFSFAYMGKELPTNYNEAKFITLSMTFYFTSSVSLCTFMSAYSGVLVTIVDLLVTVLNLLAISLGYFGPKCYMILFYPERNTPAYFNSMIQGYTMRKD
Sequence (Q7RTX0 21-852): as the sequence (Q7RTX0 21-852 M110T, one chain of several) above, with T90M counted along it
ASSAY METHOD TEXT: Calcium mobilisation assay, TAS1R2 variant R838K with TAS1R3-WT
MEASURE NAME: EC50 (µM)
Report the value in µM with no unit label.

- COMPOUND: "C[C@H](CC[C@@H](O[C@@H]1O[C@H](CO[C@@H]2O[C@H](CO)[C@@H](O)[C@H](O)[C@H]2O)[C@@H](O)[C@H](O)[C@H]1O[C@@H]1O[C@H](CO)[C@@H](O)[C@H](O)[C@H]1O)C(C)(C)O)[C@H]1CC[C@@]2(C)[C@@H]3CC=C4[C@@H](CC[C@H](O[C@@H]5O[C@H](CO[C@@H]6O[C@H](CO)[C@@H](O)[C@H](O)[C@H]6O)[C@@H](O)[C@H](O)[C@H]5O)C4(C)C)[C@]3(C)[C@H](O)C[C@]12C [Mogroside V, mogroside V]"
  ENDPOINT UNIT: "µM"
  EC50: 17.1

Query :: Could you share what EC50 was measured for OC[C@H]1O[C@H](O[C@]2(CCl)O[C@H](CCl)[C@@H](O)[C@@H]2O)[C@H](O)[C@@H](O)[C@H]1Cl [Sucralose] , tested on human TAS1R2-R838K/TAS1R3-WT (Homo sapiens, UniProt Q7RTX0+Q8TE23, R838K)?
Result :: 82

* * *

TESTED ON: human TAS1R2-R317G/TAS1R3-WT (Homo sapiens, UniProt Q7RTX0+Q8TE23, R317G)
Construct: expressed in transfected cells; host or cells: HEK293T-Gα16gust44
Sequence (Q8TE23 20-839 R317G): as the sequence (Q8TE23 20-839 R838K) above, with R298G, K819R counted along it
Sequence (Q7RTX0 21-852): as the sequence (Q7RTX0 21-852 M110T, one chain of several) above, with T90M counted along it
ASSAY METHOD TEXT: Calcium mobilisation assay, TAS1R2 variant R317G with TAS1R3-WT
Assay type: cell-based
MEASURE NAME: R1 = Variant EC50/WT EC50
In your answer, state the number alone without any accompanying words.

- MOLECULE: "C[C@H](CC[C@@H](O[C@@H]1O[C@H](CO[C@@H]2O[C@H](CO)[C@@H](O)[C@H](O)[C@H]2O)[C@@H](O)[C@H](O)[C@H]1O[C@@H]1O[C@H](CO)[C@@H](O)[C@H](O)[C@H]1O)C(C)(C)O)[C@H]1CC[C@@]2(C)[C@@H]3CC=C4[C@@H](CC[C@H](O[C@@H]5O[C@H](CO[C@@H]6O[C@H](CO)[C@@H](O)[C@H](O)[C@H]6O)[C@@H](O)[C@H](O)[C@H]5O)C4(C)C)[C@]3(C)[C@H](O)C[C@]12C [Mogroside V, mogroside V]"
  R1 = Variant EC50/WT EC50: 1.1

In the following, a different molecule is considered.
Query :: Tell me the measured R1 = Variant EC50/WT EC50 of `COC(=O)[C@H](Cc1ccccc1)NC(=O)[C@H](CC(=O)O)NCCC(C)(C)C` , please.
Result :: 0.9

* * *

TESTED ON: human TAS1R2-WT/TAS1R3-L95P (Homo sapiens, UniProt Q7RTX0+Q8TE23, L95P)
Sequence (Q8TE23 20-839): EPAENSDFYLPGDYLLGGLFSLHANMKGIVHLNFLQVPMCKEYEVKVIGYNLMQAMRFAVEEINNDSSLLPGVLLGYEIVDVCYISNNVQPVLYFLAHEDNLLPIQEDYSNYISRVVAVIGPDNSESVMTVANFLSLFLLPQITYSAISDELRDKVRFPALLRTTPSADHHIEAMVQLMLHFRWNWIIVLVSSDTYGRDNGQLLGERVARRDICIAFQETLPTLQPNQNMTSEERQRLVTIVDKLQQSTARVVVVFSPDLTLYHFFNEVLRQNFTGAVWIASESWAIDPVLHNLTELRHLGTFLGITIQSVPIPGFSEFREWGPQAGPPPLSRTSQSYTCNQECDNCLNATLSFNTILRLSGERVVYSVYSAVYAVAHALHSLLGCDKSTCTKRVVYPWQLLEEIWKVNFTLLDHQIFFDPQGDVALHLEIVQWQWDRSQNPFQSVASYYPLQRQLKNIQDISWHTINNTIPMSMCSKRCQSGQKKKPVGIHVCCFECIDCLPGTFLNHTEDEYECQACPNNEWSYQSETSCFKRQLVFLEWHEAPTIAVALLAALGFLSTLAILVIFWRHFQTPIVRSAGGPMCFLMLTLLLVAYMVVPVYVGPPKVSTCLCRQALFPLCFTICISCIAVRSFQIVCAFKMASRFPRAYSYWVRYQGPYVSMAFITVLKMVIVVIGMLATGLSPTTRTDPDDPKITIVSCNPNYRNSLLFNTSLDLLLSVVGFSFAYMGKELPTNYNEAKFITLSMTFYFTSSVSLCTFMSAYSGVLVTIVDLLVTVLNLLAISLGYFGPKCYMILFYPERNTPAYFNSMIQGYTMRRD
Sequence (Q7RTX0 21-852 L95P): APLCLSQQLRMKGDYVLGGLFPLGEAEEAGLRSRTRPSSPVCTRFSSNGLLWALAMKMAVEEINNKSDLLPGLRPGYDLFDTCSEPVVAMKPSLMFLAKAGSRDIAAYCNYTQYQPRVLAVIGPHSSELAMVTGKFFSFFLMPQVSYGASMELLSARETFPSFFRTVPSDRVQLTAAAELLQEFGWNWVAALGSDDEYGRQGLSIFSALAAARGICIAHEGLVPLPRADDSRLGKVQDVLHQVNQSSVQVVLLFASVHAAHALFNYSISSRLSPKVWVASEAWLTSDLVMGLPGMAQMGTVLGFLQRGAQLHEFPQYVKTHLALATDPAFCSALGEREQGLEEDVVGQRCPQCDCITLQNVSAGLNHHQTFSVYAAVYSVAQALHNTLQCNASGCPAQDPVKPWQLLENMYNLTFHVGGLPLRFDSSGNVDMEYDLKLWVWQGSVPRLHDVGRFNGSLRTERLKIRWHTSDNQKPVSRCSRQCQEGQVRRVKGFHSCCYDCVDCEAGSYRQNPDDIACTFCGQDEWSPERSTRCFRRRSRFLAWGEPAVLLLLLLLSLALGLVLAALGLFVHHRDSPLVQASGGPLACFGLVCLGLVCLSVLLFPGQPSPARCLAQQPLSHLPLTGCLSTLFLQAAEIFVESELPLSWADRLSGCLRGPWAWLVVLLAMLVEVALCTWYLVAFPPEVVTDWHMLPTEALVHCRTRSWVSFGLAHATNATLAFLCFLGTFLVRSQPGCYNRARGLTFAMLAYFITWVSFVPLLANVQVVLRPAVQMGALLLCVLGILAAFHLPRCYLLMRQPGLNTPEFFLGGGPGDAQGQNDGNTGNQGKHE
ASSAY METHOD TEXT: Calcium mobilisation assay, TAS1R2-WT with TAS1R3 variant L95P
CONDITION PARAMETERS: "-": no activation
MEASURE NAME: pEC50
// pEC50 here means minus log10 of the molar concentration (mol/L)

Query :: Tell me the measured pEC50 of `C=C(C)[C@@H]1CC=C(/C=N/O)CC1` , please.
Result :: 4.47

* * *

TESTED ON: human TAS1R2-WT/TAS1R3-C757R (Homo sapiens, UniProt Q7RTX0+Q8TE23, C757R)
Construct: expressed in transfected cells; host or cells: HEK293T stably expressing Gα16gust44
Sequence (Q8TE23 20-839): as the sequence (Q8TE23 20-839) above
Sequence (Q7RTX0 21-852 C757R): as the sequence (Q7RTX0 21-852 L95P) above, with P75L, C737R counted along it
ASSAY METHOD TEXT: Calcium mobilisation assay, TAS1R2-WT with TAS1R3 variant C757R
Type: cell-based
CONDITION PARAMETERS: read-out: EC50
pEC50: −log10 of the molar value.
MEASURE NAME: pEC50

Below: 2 molecules and their reported pEC50.
- MOLECULE: "OC[C@H]1O[C@H](O[C@]2(CCl)O[C@H](CCl)[C@@H](O)[C@@H]2O)[C@H](O)[C@@H](O)[C@H]1Cl"
  MEASURE NAME: "pEC50"
  OBSERVED VALUE: 3.95
- MOLECULE: "C=C1C[C@@]23CC[C@H]4[C@@](C)(CCC[C@@]4(C)C(=O)O[C@@H]4O[C@H](CO)[C@@H](O)[C@H](O[C@@H]5O[C@H](CO)[C@@H](O)[C@H](O)[C@H]5O)[C@H]4O[C@@H]4O[C@H](CO)[C@@H](O)[C@H](O)[C@H]4O)[C@@H]2CC[C@]1(O[C@@H]1O[C@H](CO)[C@@H](O)[C@H](O[C@@H]2O[C@H](CO)[C@@H](O)[C@H](O)[C@H]2O)[C@H]1O[C@@H]1O[C@H](CO)[C@@H](O)[C@H](O)[C@H]1O)C3 [Rebaudioside M, rebaudioside M]"
  MEASURE NAME: "pEC50"
  OBSERVED VALUE: 4.61

1 = COC(=O)[C@H](Cc1ccccc1)NC(=O)[C@H](CC(=O)O)NCCC(C)(C)C
2 = C=C(C)[C@@H]1CC=C(/C=N/O)CC1
Query :: Field: entry with larger pEC50 (options 1 / 2 ). Identify your selection by its label.
Result :: 1
(1: 6.06, 2: 5.09)

* * *

TESTED ON: human TAS1R2-WT/TAS1R3-R247H (Homo sapiens, UniProt Q7RTX0+Q8TE23, R247H)
Construct: expressed in transfected cells; host or cells: HEK293T stably expressing Gα16gust44
Sequence (Q7RTX0 21-852 R247H, one chain of several): as the sequence (Q7RTX0 21-852 M110T, one chain of several) above, with T90M, R227H counted along it
ASSAY METHOD TEXT: Calcium mobilisation assay, TAS1R2-WT with TAS1R3 variant R247H
Type: cell-based
CONDITION PARAMETERS: read-out: EC50
MEASURE NAME: EC50 (µM)

- MOLECULE: "COc1ccc(CCC(=O)c2c(O)cc(O[C@@H]3O[C@H](CO)[C@@H](O)[C@H](O)[C@H]3O[C@@H]3O[C@@H](C)[C@H](O)[C@@H](O)[C@H]3O)cc2O)cc1O [NHDC, neohesperidin dihydrochalcone]"
  ENDPOINT UNIT: "µM"
  EC50: 65
- MOLECULE: "C[C@H](CC[C@@H](O[C@@H]1O[C@H](CO[C@@H]2O[C@H](CO)[C@@H](O)[C@H](O)[C@H]2O)[C@@H](O)[C@H](O)[C@H]1O[C@@H]1O[C@H](CO)[C@@H](O)[C@H](O)[C@H]1O)C(C)(C)O)[C@H]1CC[C@@]2(C)[C@@H]3CC=C4[C@@H](CC[C@H](O[C@@H]5O[C@H](CO[C@@H]6O[C@H](CO)[C@@H](O)[C@H](O)[C@H]6O)[C@@H](O)[C@H](O)[C@H]5O)C4(C)C)[C@]3(C)[C@H](O)C[C@]12C [Mogroside V, mogroside V]"
  ENDPOINT UNIT: "µM"
  EC50: 28.7
- MOLECULE: "O=S(=O)(O)NC1CCCCC1 [Cyclamate, cyclamate]"
  ENDPOINT UNIT: "µM"
  EC50: 1520
- MOLECULE: "C=C1C[C@@]23CC[C@H]4[C@@](C)(CCC[C@@]4(C)C(=O)O[C@@H]4O[C@H](CO)[C@@H](O)[C@H](O[C@@H]5O[C@H](CO)[C@@H](O)[C@H](O)[C@H]5O)[C@H]4O[C@@H]4O[C@H](CO)[C@@H](O)[C@H](O)[C@H]4O)[C@@H]2CC[C@]1(O[C@@H]1O[C@H](CO)[C@@H](O)[C@H](O[C@@H]2O[C@H](CO)[C@@H](O)[C@H](O)[C@H]2O)[C@H]1O[C@@H]1O[C@H](CO)[C@@H](O)[C@H](O)[C@H]1O)C3 [Rebaudioside M, rebaudioside M]"
  ENDPOINT UNIT: "µM"
  EC50: 29.7

1 = CC1=CC(=O)NS(=O)(=O)O1
2 = OC[C@H]1O[C@H](O[C@]2(CCl)O[C@H](CCl)[C@@H](O)[C@@H]2O)[C@H](O)[C@@H](O)[C@H]1Cl
3 = C=C(C)[C@@H]1CC=C(/C=N/O)CC1
4 = COC(=O)[C@H](Cc1ccccc1)NC(=O)[C@H](CC(=O)O)NCCC(C)(C)C
Query :: Please produce an ascending ranking of these molecules based on EC50. Please respond with the labels ordered as the question requires.
Result :: 4, 3, 2, 1
(4: 1.12 µM, 3: 8.5 µM, 2: 122 µM, 1: 639 µM)
